- test system: leukocyte-type 12-lipoxygenase (leukocyte-type 12-LOX), porcine (Sus scrofa, UniProt P16469)
- Construct: partially purified from J774A.1 cells overexpressing the porcine enzyme
- assay summary: RP-HPLC of HETE products after reduction
pIC50: −log10 of the molar value.
measured quantity: pIC50

(1) C/C(=C\CO[C@@H]1O[C@H](CO)[C@@H](OC(=O)/C=C\c2ccc(O)cc2)[C@H](O[C@@H]2O[C@@H](C)[C@H](O)[C@@H](O)[C@H]2O)[C@H]1O)C/C=C/C(C)(C)OO
(2) C/C(=C\CO[C@@H]1O[C@H](CO)[C@@H](OC(=O)/C=C/c2ccc(O)cc2)[C@H](O[C@@H]2O[C@@H](C)[C@H](O)[C@@H](O)[C@H]2O)[C@H]1O)C/C=C/C(C)(C)OO
Just curious, which one has the larger pIC50 reading, 1 or 2 ? State your choice using its label.
1
(1: 6.15, 2: 5.77)
